Test system: OVCAR-4
Test: NCI tumour cell line growth inhibition, 48 h
The source made the active and inactive calls. Rule as the data show it: active = GI50 up to about 1.1 µM and inactive = higher.
Outcomes: active, inactive

- molecule: "O=c1cccccc1O.O=c1cccccc1O.O=c1cccccc1O.[SiH4]"
  targetOrSystem: "OVCAR-4"
  assignedLabel: "inactive"
- molecule: "COc1c(O)cc2oc(-c3ccc(O)cc3)cc(=O)c2c1O [HISPIDULIN]"
  targetOrSystem: "OVCAR-4"
  assignedLabel: "inactive"
- molecule: "c1ccc2c(c1)nnn2C1CCCCO1 (stereo not given)"
  targetOrSystem: "OVCAR-4"
  assignedLabel: "inactive"
- molecule: "CCOC(=O)c1sc2nc(SC)nc(Nc3ccc(OC)c(OC)c3)c2c1N"
  targetOrSystem: "OVCAR-4"
  assignedLabel: "inactive"
- molecule: "C1OC1CO[C@@H]1CO[C@H]2[C@@H]1OC[C@H]2OCC1CO1 (stereo not given in full)"
  targetOrSystem: "OVCAR-4"
  assignedLabel: "inactive"
- molecule: "CN1CCN(c2n[nH]c(=O)c3c2nnn3Cc2ccccc2)CC1"
  targetOrSystem: "OVCAR-4"
  assignedLabel: "inactive"
- molecule: "Clc1cccc(-c2nnc(-c3nn(-c4ccccc4)c4nc5ccccc5nc34)o2)c1"
  targetOrSystem: "OVCAR-4"
  assignedLabel: "inactive"
- molecule: "COc1ccc2c(c1)CCN=C2c1ccccc1CCCCl"
  targetOrSystem: "OVCAR-4"
  assignedLabel: "inactive"
- molecule: "C=CCOC(OCC=C)/C(Br)=C/C"
  targetOrSystem: "OVCAR-4"
  assignedLabel: "inactive"
- molecule: "CN(C)CC/C(=N\\Nc1ccc(Cl)cc1Cl)c1ccccc1"
  targetOrSystem: "OVCAR-4"
  assignedLabel: "inactive"
- molecule: "CC1(C)C(C#N)=[N+]([O-])C(C)(C)N1O"
  targetOrSystem: "OVCAR-4"
  assignedLabel: "inactive"
- molecule: "C=CCOC(=O)C1C2OC3(C(C(=O)OC)=C2C(=O)OC)c2ccccc2CCC13 (stereo not given)"
  targetOrSystem: "OVCAR-4"
  assignedLabel: "inactive"
- molecule: "c1ccc([I+]c2ccccc2)cc1"
  targetOrSystem: "OVCAR-4"
  assignedLabel: "inactive"
- molecule: "CNc1nc(=O)c(C#N)c(-c2ccc(C)cc2)s1"
  targetOrSystem: "OVCAR-4"
  assignedLabel: "inactive"
- molecule: "c1ccc([P+](CCNCCNCC[P+](c2ccccc2)(c2ccccc2)c2ccccc2)(c2ccccc2)c2ccccc2)cc1"
  targetOrSystem: "OVCAR-4"
  assignedLabel: "inactive"
- molecule: "C=CC1(NC(=O)c2ccccc2)CCC(C(C)(C)C)CC1 (stereo not given)"
  targetOrSystem: "OVCAR-4"
  assignedLabel: "inactive"
- molecule: "Fc1ccc2nc3n(c2c1)C(c1c(Cl)cccc1Cl)SC3 (stereo not given)"
  targetOrSystem: "OVCAR-4"
  assignedLabel: "inactive"
- molecule: "O=C(Nc1cnc(O)nc1O)C(Cl)Cl"
  targetOrSystem: "OVCAR-4"
  assignedLabel: "inactive"
- molecule: "COc1cccc(N2C(=O)/C(=C\\c3ccccc3)SC2c2cc(OC)c(OC)c(OC)c2)c1 (stereo not given)"
  targetOrSystem: "OVCAR-4"
  assignedLabel: "inactive"
- molecule: "Cc1ccc(S(=O)(=O)N(CC(O)COc2ccccc2)c2c(F)c(F)cc(F)c2F)cc1 (stereo not given)"
  targetOrSystem: "OVCAR-4"
  assignedLabel: "inactive"
- molecule: "c1ccc(COc2ccc(C[P+](c3ccccc3)(c3ccccc3)c3ccccc3)cc2)cc1"
  targetOrSystem: "OVCAR-4"
  assignedLabel: "active"
- molecule: "OC12CCCCCC1(N1CCOCC1)c1ccccc12 (stereo not given)"
  targetOrSystem: "OVCAR-4"
  assignedLabel: "inactive"
- molecule: "COc1ccccc1NC(=S)N/N=C(/c1ccccc1)c1ccccn1"
  targetOrSystem: "OVCAR-4"
  assignedLabel: "active"
- molecule: "CCCCCCOc1ccc(C(=O)NOC)cc1"
  targetOrSystem: "OVCAR-4"
  assignedLabel: "inactive"
- molecule: "CSc1ccc(/C=C2\\N=C(c3ccccc3)N(c3nc4cc(C)c(C)cc4s3)C2=O)cc1"
  targetOrSystem: "OVCAR-4"
  assignedLabel: "inactive"
- molecule: "O=C(OCc1ccccc1)N1CCN(C(=O)OCc2ccccc2)CCN(C(=O)OCc2ccccc2)CCN(C(=O)OCc2ccccc2)CCN(C(=O)OCc2ccccc2)CC1"
  targetOrSystem: "OVCAR-4"
  assignedLabel: "inactive"
- molecule: "CCOC(CN(C)C(=S)Nc1cccc2ccccc12)OCC"
  targetOrSystem: "OVCAR-4"
  assignedLabel: "inactive"
- molecule: "CN1CCc2cc(N)cc3c2C1Cc1ccc(O)c(O)c1-3 (stereo not given)"
  targetOrSystem: "OVCAR-4"
  assignedLabel: "inactive"
- molecule: "C/C(=C\\C(=O)Nc1ccc2[nH]nnc2c1)Nc1ccc2[nH]nnc2c1"
  targetOrSystem: "OVCAR-4"
  assignedLabel: "inactive"
- molecule: "O=C(NCCC1CN(C(=O)OCc2ccccc2)c2ccccc21)OCc1ccccc1 (stereo not given)"
  targetOrSystem: "OVCAR-4"
  assignedLabel: "inactive"
- molecule: "NC(=O)N/N=C(\\Cc1cc(=O)oc2cc(O)ccc12)C(=O)Nc1ccccc1C(N)=O"
  targetOrSystem: "OVCAR-4"
  assignedLabel: "inactive"
- molecule: "CN(CCCNC(=O)c1cn(C)c2c1ccc1ccccc12)CCCNC(=O)c1cn(C)c2c1ccc1ccccc12"
  targetOrSystem: "OVCAR-4"
  assignedLabel: "inactive"
- molecule: "N#Cc1cc2c(n(C3OC(CO)C(O)C(O)C3O)c1=S)CCCCC2 (stereo not given)"
  targetOrSystem: "OVCAR-4"
  assignedLabel: "inactive"
- molecule: "CCC(=O)c1cc(C(=O)C(=S)SC)cc(C(=O)C(=S)SC)c1"
  targetOrSystem: "OVCAR-4"
  assignedLabel: "inactive"
- molecule: "CCCCc1ccc(Nc2nc(SC)c3[nH]cnc3n2)cc1"
  targetOrSystem: "OVCAR-4"
  assignedLabel: "inactive"
- molecule: "CN(C=O)/C=C/c1cc(O)ccc1O"
  targetOrSystem: "OVCAR-4"
  assignedLabel: "inactive"
- molecule: "C[N+]1(C)CCC(C#N)(c2ccccc2)CC1"
  targetOrSystem: "OVCAR-4"
  assignedLabel: "inactive"
- molecule: "CN(C)c1ccc(/C=C(\\NC(=O)c2ccccc2)C2=NC(CCC(=O)O)C(=O)O2)cc1 (stereo not given)"
  targetOrSystem: "OVCAR-4"
  assignedLabel: "inactive"
- molecule: "O=c1ccn(C2OC(CN(O)CCC3C(CO)OC(n4ccc(=O)[nH]c4=O)C3O)C(O)C2O)c(=O)[nH]1 (stereo not given)"
  targetOrSystem: "OVCAR-4"
  assignedLabel: "inactive"
- molecule: "COc1ccc2c(c1)C(=O)c1ccccc1C2"
  targetOrSystem: "OVCAR-4"
  assignedLabel: "inactive"
- molecule: "O=C(COc1ccc2c(=O)cc(-c3ccc(Cl)cc3)oc2c1)N1CCN(c2ccccc2)CC1"
  targetOrSystem: "OVCAR-4"
  assignedLabel: "inactive"
- molecule: "CCN(CC)c1ccc(/N=N/c2ccc(-c3nc4cccnc4s3)cc2)cc1"
  targetOrSystem: "OVCAR-4"
  assignedLabel: "inactive"
- molecule: "Cc1ccsc1/C=N/Nc1ncccn1"
  targetOrSystem: "OVCAR-4"
  assignedLabel: "inactive"
- molecule: "CC(=O)Nc1ccccc1Sc1ccccc1"
  targetOrSystem: "OVCAR-4"
  assignedLabel: "inactive"
- molecule: "[N-]=[N+]=Nc1ncnc2c1sc(=S)n2-c1ccccc1"
  targetOrSystem: "OVCAR-4"
  assignedLabel: "inactive"
